system: NET (Homo sapiens, UniProt P23975)
Sequence (P23975 whole entry): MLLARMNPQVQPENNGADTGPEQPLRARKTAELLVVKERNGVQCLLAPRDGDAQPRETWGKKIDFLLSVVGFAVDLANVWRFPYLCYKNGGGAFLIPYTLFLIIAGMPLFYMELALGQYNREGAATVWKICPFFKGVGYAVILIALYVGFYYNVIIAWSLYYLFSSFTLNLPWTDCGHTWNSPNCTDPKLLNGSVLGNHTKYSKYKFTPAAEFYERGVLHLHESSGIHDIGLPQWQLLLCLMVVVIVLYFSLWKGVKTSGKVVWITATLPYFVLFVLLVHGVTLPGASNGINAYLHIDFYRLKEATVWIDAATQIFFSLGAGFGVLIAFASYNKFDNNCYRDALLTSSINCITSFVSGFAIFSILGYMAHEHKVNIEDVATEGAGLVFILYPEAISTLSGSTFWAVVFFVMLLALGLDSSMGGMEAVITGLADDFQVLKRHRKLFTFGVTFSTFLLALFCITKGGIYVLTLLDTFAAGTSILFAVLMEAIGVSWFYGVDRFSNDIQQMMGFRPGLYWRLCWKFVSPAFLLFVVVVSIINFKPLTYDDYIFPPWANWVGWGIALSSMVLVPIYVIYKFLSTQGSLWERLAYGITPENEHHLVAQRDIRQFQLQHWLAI
assay-remarks: Monoamine reuptake inhibition assay, NET in HEK293 cells
Type: cell-based
Design: expressed in transfected cells; host or cells: HEK293
condition-notes: HEK293 cells
Kindly return met if reported Hill slope NET reuptake inhibition is no lower than 1; return not met if it is lower.

>>> print(df.to_string())
                                   compound  class
0  COc1ccc(C(Cc2ccccc2)N2CCCCC2)cc1 (centres unmarked) [4-MXP, 4-methoxy-diphenidine]    met

Exercise: Quick check, Hill slope NET reuptake inhibition >= 1? COc1ccccc1C(Cc1ccccc1)N1CCCCC1 (centres unmarked) [2-MXP, 2-methoxydiphenidine]
Solution: met

Exercise: Has c1ccc(CC(c2ccccc2)N2CCCCC2)cc1 (centres unmarked) [DPH, diphenidine] a recorded Hill slope NET reuptake inhibition greater than or equal to 1?
Solution: not met

Exercise: Say whether COc1cccc(C(Cc2ccccc2)N2CCCCC2)c1 (centres unmarked) [3-MXP, 3-methoxy-diphenidine] shows Hill slope NET reuptake inhibition of 1 or more.
Solution: not met
